Below: a set of entries, each annotated with reported Emax.
# ASSAY_SYSTEM: human muscarinic M1 receptor (Homo sapiens)
# Sequence (P11229 1-460): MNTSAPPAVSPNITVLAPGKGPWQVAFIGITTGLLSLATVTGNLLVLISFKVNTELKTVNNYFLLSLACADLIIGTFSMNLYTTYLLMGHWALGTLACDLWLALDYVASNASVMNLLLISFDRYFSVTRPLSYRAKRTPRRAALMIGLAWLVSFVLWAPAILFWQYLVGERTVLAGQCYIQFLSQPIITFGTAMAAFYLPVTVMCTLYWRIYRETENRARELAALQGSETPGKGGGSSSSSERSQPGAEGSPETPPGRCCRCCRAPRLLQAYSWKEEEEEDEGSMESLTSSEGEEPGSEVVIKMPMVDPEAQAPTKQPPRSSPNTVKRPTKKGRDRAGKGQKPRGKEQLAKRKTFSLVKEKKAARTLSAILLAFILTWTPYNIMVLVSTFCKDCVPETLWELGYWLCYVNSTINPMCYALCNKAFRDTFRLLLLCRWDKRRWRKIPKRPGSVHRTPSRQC
# TEST_SUMMARY: Alphascreen Surefire phospho-ERK1/2 functional assay, M1
# Assay type: cell-based
# EXPERIMENTAL_PARAMETERS: CHO, read-out: % Emax cf. ACh, M1, CHO cells stably expressing human M1; relative to ACh
Write the number in % without appending the unit.

Some compounds with known Emax results, for comparison:
[[record]]
compound = "CCOC(=O)N1CCC2(CC(N3CCC(N4CC(F)(F)C[C@@H]4C(=O)NOC)CC3)C2)C1 (single isomer, unassigned) [2-91 Isomer 2]"
value_reported = 40

[[record]]
compound = "CCOC(=O)N1CCC2(CC(N3CCC(C4CCCN4C(=O)CC)CC3)C2)C1 (single isomer, unassigned) [2-6 Isomer 2]"
value_reported = 57


GET /values?readout=Emax&system=human muscarinic M1 receptor (Homo sapiens)&item= CCOC(=O)N1CCC2(CC(N3CCC(c4nnn[nH]4)CC3)C2)C1 (single isomer, unassigned) [1-31 Isomer 2] 34

GET /values?readout=Emax&system=human muscarinic M1 receptor (Homo sapiens)&item= CCOC(=O)N1CCC2(CC(N3CCC([C@@H]4CCCN4C(=O)NCCF)CC3)C2)C1 (single isomer, unassigned) [2-44 Isomer 2] 71

GET /values?readout=Emax&system=human muscarinic M1 receptor (Homo sapiens)&item= CCOC(=O)N1CCC2(CC(N3CCC(c4cc[nH]c(=O)c4)CC3)C2)C1 (single isomer, unassigned) [3-16 Isomer 2] 39

* * *

Below: a set of entries, each annotated with reported EC50.
# ASSAY_SYSTEM: human muscarinic M1 receptor (Homo sapiens, UniProt P11229)
# TEST_SUMMARY: Alphascreen Surefire phospho-ERK1/2 functional assay, M1
# Type: cell-based
# EXPERIMENTAL_PARAMETERS: CHO cells stably expressing human M1; phospho-ERK1/2; * = variable results; read-out: pEC50 M1 (converted)

Some compounds with known EC50 results, for comparison:
[[record]]
compound = "CCOC(=O)N1CCC2(CC(N3CCC(N4CC[C@@H](F)C4)CC3)C2)C1 (single isomer, unassigned) [2-98 Isomer 2]"
value_reported = "> 20 µM"

[[record]]
compound = "CCOC(=O)N1CCC2(CC(N3CCC(c4cnc(OC)cc4C)CC3)C2)C1 (single isomer, unassigned) [3-6 Isomer 2]"
value_reported = "> 20 µM"


Here's the next entry for you.
Tell me the measured EC50 of CCOC(=O)N1CCC2(CC(N3CCC([C@@H]4CCCN4c4nnc(C)o4)CC3)C2)C1 (single isomer, unassigned) [2-138 Isomer 2] , please. > 20 µM

* * *

# ASSAY_SYSTEM: human muscarinic M4 receptor (Homo sapiens)
# Construct: expressed in transfected cells
# TEST_SUMMARY: Alphascreen Surefire phospho-ERK1/2 functional assay, M4
# Type: cell-based
# EXPERIMENTAL_PARAMETERS: CHO, read-out: % Emax cf. ACh, M4, CHO cells stably expressing human M4; relative to ACh
Below: a set of entries, each annotated with reported Emax.
Write the number in % without appending the unit.

Tell me the measured Emax of CCOC(=O)N1CCC2(CC(N3CCC([C@@H]4CCCN4C(=O)CC(F)(F)F)CC3)C2)C1 (single isomer, unassigned) [2-53 Isomer 2] , please. 126

Tell me the measured Emax of CNC(=O)N1CCC[C@H]1C1CCN(C2CC3(CCN(C(=O)OC)C3)C2)CC1 (single isomer, unassigned) [2-15 Isomer 2] , please. 111

Tell me the measured Emax of CCOC(=O)N1CCC2(CC(N3CCC(c4ccnc(N)n4)CC3)C2)C1 (single isomer, unassigned) [3-8 Isomer 2] , please. 54

Tell me the measured Emax of CCOC(=O)N1CCC2(CC(N3CCC(N4CCCC[C@@H]4C(=O)N(C)C)CC3)C2)C1 (single isomer, unassigned) [4-17 Isomer 2] , please. 106

Tell me the measured Emax of CCOC(=O)N1CCC2(CC(N3CCC(c4ccon4)CC3)C2)C1 (single isomer, unassigned) [1-43 Isomer 2] , please. 61

Tell me the measured Emax of CCOC(=O)N1CCC2(CC(N3CCC(c4nc(C(F)(F)F)c[nH]4)CC3)C2)C1 (single isomer, unassigned) [1-3 Isomer 2] , please. 41

* * *

Below: a set of entries, each annotated with reported Emax.
# ASSAY_SYSTEM: human muscarinic M4 receptor (Homo sapiens)
# Construct: expressed in transfected cells
# TEST_SUMMARY: Alphascreen Surefire phospho-ERK1/2 functional assay, M4
# Type: cell-based
# EXPERIMENTAL_PARAMETERS: CHO, read-out: % Emax cf. ACh, M4, CHO cells stably expressing human M4; relative to ACh
Please answer using the number first and the unit second.

Some molecules with known Emax results, for comparison:
[[record]]
molecule = "COC(=O)N1CCC2(CC(N3CCC(n4cc(C)cn4)CC3)C2)C1 (single isomer, unassigned) [1-42 Isomer 2]"
assay_system = "human muscarinic M4 receptor (Homo sapiens)"
value_reported = "76%"

[[record]]
molecule = "CCOC(=O)N1CCC2(CC(N3CCC([C@@H]4CCCN4c4ccncc4)CC3)C2)C1 (single isomer, unassigned) [2-80 Isomer 2]"
assay_system = "human muscarinic M4 receptor (Homo sapiens)"
value_reported = "107%"


Here's the next entry for you.
Tell me the measured Emax of CCOC(=O)N1CCC2(CC(N3CCC(c4nnnn4C4CC4)CC3)C2)C1 (single isomer, unassigned) [1-67 Isomer 2] , please. 75%

* * *

Below: a set of entries, each annotated with reported Emax.
# ASSAY_SYSTEM: human muscarinic M3 receptor (Homo sapiens, UniProt P20309)
# Sequence (P20309 whole entry): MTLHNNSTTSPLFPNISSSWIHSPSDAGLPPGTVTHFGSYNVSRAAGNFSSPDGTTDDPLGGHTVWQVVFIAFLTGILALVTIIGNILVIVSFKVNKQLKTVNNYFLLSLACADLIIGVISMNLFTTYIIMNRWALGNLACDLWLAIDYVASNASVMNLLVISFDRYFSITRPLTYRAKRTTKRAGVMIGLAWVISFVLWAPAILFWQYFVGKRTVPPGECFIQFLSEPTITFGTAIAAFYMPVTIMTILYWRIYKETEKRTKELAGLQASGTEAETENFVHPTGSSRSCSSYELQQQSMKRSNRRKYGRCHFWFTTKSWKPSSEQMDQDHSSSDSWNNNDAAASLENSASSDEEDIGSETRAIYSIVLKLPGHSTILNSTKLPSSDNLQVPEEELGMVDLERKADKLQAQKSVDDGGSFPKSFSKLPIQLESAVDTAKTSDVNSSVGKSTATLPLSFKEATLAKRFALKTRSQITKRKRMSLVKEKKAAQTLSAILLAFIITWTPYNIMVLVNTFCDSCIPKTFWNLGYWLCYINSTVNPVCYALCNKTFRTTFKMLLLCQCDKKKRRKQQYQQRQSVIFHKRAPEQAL
# TEST_SUMMARY: Alphascreen Surefire phospho-ERK1/2 functional assay, M3
# EXPERIMENTAL_PARAMETERS: CHO, read-out: % Emax cf. ACh, M3, CHO cells stably expressing human M3; relative to ACh
Write the number in % without appending the unit.

Some compounds with known Emax results, for comparison:
[[record]]
compound = "CCOC(=O)N1CCC2(CC(N3CCC(N4CCC(F)(F)CC4)CC3)C2)C1 (single isomer, unassigned) [4-14 Isomer 2]"
value_reported = 0

[[record]]
compound = "CCOC(=O)N1CCC2(CC(N3CCC(N4C(=O)CCC4(C)C)CC3)C2)C1 (single isomer, unassigned) [2-117 Isomer 2]"
value_reported = 7

[[record]]
compound = "CCOC(=O)N1CCC2(CC(N3CCC(N4C(=O)OC[C@@H]4C(C)C)CC3)C2)C1 (single isomer, unassigned) [2-123 Isomer 2]"
value_reported = 29


Tell me the measured Emax of CCOC(=O)N1CCC2(CC(N3CCC(N4CC(F)(F)C[C@@H]4C(=O)OC)CC3)C2)C1 (single isomer, unassigned) [2-87 Isomer 2] , please. 3

Tell me the measured Emax of CCOC(=O)N1CCC2(CC(N3CCC(C4CCCN4C(=O)OC)CC3)C2)C1 (single isomer, unassigned) [2-11 Isomer 2] , please. 7

Tell me the measured Emax of CCOC(=O)N1CCC2(CC(N3CCC(c4cc(C)cnc4OC)CC3)C2)C1 (single isomer, unassigned) [3-12 Isomer 2] , please. 5

Tell me the measured Emax of CCOC(=O)N1CCC2(CC(N3CCC(c4nccn4C)CC3)C2)C1 (single isomer, unassigned) [1-7 Isomer 2] , please. 22

* * *

# ASSAY_SYSTEM: human muscarinic M4 receptor (Homo sapiens, UniProt P08173)
# Construct: expressed in transfected cells
# Sequence (P08173 whole entry): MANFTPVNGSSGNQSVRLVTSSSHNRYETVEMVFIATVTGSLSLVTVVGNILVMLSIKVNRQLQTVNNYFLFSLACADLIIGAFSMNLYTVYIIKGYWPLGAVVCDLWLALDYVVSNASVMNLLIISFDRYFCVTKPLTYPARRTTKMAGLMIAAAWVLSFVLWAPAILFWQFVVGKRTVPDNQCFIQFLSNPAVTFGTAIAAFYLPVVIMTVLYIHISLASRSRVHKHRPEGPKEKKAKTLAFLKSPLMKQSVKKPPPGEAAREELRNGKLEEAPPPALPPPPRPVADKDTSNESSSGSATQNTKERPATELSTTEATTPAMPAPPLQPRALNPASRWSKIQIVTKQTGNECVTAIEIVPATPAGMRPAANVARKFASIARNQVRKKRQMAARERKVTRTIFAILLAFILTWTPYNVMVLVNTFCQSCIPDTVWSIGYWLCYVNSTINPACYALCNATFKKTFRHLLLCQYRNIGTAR
# TEST_SUMMARY: Alphascreen Surefire phospho-ERK1/2 functional assay, M4
# Format: cell-based
# EXPERIMENTAL_PARAMETERS: CHO, read-out: % Emax cf. ACh, M4, CHO cells stably expressing human M4; relative to ACh
Below: a set of entries, each annotated with reported Emax.
Write the number in % without appending the unit.

Tell me the measured Emax of CCOC(=O)N1CCC2(CC(N3CCC(c4c(C)cc[nH]c4=O)CC3)C2)C1 (single isomer, unassigned) [3-14 Isomer 1] , please. 65

Tell me the measured Emax of CCOC(=O)N1CCC2(CC(N3CCC(n4cccc4)CC3)C2)C1 (single isomer, unassigned) [1-32 Isomer 2] , please. 126

Tell me the measured Emax of CCOC(=O)N1CCC2(CC(N3CCC(N4C(=O)CC[C@H]4CC)CC3)C2)C1 (single isomer, unassigned) [2-114 Isomer 2] , please. 114

Tell me the measured Emax of CCOC(=O)N1CCC2(CC(N3CCC(c4cc[nH]c(=O)c4)CC3)C2)C1 (single isomer, unassigned) [3-16 Isomer 2] , please. 47

Tell me the measured Emax of CCOC(=O)N1CCC2(CC(N3CCC(N4CCC[C@]4(C)C(=O)OC)CC3)C2)C1 (single isomer, unassigned) [2-95 Isomer 2] , please. 49

Tell me the measured Emax of CCOC(=O)N1CCC2(CC(N3CCC(N4CCC[C@@H]4c4nccs4)CC3)C2)C1 (single isomer, unassigned) [2-132 Isomer 2] , please. 72
